subject-of-test: T1, human vascular endothelial growth factor receptor-2 Fc chimera (KDR-Fc) (human, UniProt P35968 20-764)
T1 construct: range 1-764; also called human VEGFR-2; hKDR; not shown: human IgG1 Fc
experiment: radioactive equilibrium binding (assay not given)
pKd: −log10 of the molar value.
property-name: pKd

Task: For K6 (designed binder, Del 1-8 10Fn3 clone; Flag tag of the assay form not included) EVVAATPTSLLISWRHPHFPTRYYRITYGETGGNSPVQEFTVPLQPPTATISGLKPGVDYTITGYAVTDGKDGRVLLTPISINYRT , write its pKd.
Result: 9.03

(A) K11 (designed binder, Del 1-8 10Fn3 clone; Flag tag of the assay form not included) EVVAATPTSLLISWRHPHFPTRYYRITYGETGGNSPVQEFTVPLQPPTATISGLKPGVDYTITGYAVTQAPNDRVLYTPISINYRT
(B) K7 (designed binder, Del 1-8 10Fn3 clone; Flag tag of the assay form not included) EVVAATPTSLLISWRHPHFPTRYYRITYGETGGNSPVQEFTVPLQPPTATISGLKPGVDYTITGYAVTSGHNDHMLMIPISINYRT
Task: Pick one: A or B . Which one has the lower reported pKd? Refer to your chosen entry by its label in the reply.
Result: B
